# PROTOCOL_NOTES: Phase I human pharmacokinetics of single doses (Example 15)
# Type: in vivo, humans
# COND: male, human, plasma, im, 300 micrograms, standard IM injection 300 micrograms; read-out: CMAX values of 2 subjects with higher values
ENDPOINT_NAME: Cmax
Please state the number and follow it with the unit.

Value of measured Cmax for the entry CNCC(O)c1ccc(O)c(O)c1 (stereo not shown) [Epinephrine] : 0.405 ng/mL

* * *

# PROTOCOL_NOTES: Phase I human pharmacokinetics of single doses (Example 15)
# Assay type: in vivo, humans
# COND: male, human, plasma, im, 300 micrograms, standard IM injection 300 micrograms; read-out: CMAX values of the others in the group
ENDPOINT_NAME: Cmax

Value of measured Cmax for the entry CNCC(O)c1ccc(O)c(O)c1 (stereo not shown) [Epinephrine] : ≤ 0.22 ng/mL

* * *

# PROTOCOL_NOTES: Phase I human pharmacokinetics of single doses (Example 15)
# Assay type: in vivo, humans
# COND: male, human, plasma, im, 300 micrograms, healthy male subjects, standard IM injection, 300 micrograms, n = 7; read-out: CMAX Mean (SD)
ENDPOINT_NAME: Cmax (ng/mL)
Answer format: numeric, ng/mL implied, no suffix.

Value of measured Cmax for the entry CNCC(O)c1ccc(O)c(O)c1 (stereo not shown) [Epinephrine] : 0.263

* * *

# PROTOCOL_NOTES: Phase I human pharmacokinetics of single doses (Example 15)
# Assay type: in vivo, humans
# COND: male, human, plasma, im, 300 micrograms, healthy male subjects, standard IM injection, 300 micrograms, n = 7; read-out: TMAX (range)
ENDPOINT_NAME: Tmax

Value of measured Tmax for the entry CNCC(O)c1ccc(O)c(O)c1 (stereo not shown) [Epinephrine] : 1 to 60 min
